Target: T1, human PD1 on cells (human, UniProt Q15116 25-288)
T1 construct: HEK 293T cells stably expressing the human PD1 gene (Crown Bioscience) in flow cytometry; also called HEK293-hPD1; PD1+ HEK293 cells
T1 sequence (Q15116 25-288 limits assumed): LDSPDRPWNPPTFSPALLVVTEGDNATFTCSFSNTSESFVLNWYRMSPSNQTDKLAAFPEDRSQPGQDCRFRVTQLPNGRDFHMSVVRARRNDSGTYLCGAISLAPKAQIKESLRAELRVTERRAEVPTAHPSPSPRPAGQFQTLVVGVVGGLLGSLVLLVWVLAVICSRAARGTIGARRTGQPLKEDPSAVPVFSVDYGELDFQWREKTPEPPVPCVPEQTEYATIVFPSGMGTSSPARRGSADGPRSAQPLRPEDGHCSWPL
Test: flow cytometry on PD1+ HEK293 cells, % positive cells
measurementType: pEC50
# pEC50 is unitless: minus log10 of the molar concentration; print number only

Query: // pEC50 lookup, key: P-1198 (antibody, human IgG1, kappa, V domains shown, Full-length IgG1 L234A/L235A/G237A, kappa) VH: EVQLLESGGGLVQPGGSLRLSCAASGFTFTNYYMYWVRQAPGKGLEWVSGINPSNGGTNFADKFKGRFTISRDSSKNTLYLQMNSLRAEDTAVYYCARRDYRFDMGFDYWGQGTLVTVSS VL: EIVLTQSPATLSLSPGERATLSCRASQGVSTSGYSYLHWYQQKPGQAPRLLIYLASYRESGVPARFSGSGSGTDFTLTISSLEPEDFAVYYCQHSRDLPLTFGGGTKVEIKR
Result: 10.72

Values compiled from patent US20260078159A1.
